# MEASUREMENT_TARGET: BChE (EC 3.1.1.8, from equine serum) (Equus caballus)
# Construct: BChE (EC 3.1.1.8, from equine serum); purchased Aladdin (Shanghai, China); host or cells: equine serum
# Sequence (P81908 whole entry): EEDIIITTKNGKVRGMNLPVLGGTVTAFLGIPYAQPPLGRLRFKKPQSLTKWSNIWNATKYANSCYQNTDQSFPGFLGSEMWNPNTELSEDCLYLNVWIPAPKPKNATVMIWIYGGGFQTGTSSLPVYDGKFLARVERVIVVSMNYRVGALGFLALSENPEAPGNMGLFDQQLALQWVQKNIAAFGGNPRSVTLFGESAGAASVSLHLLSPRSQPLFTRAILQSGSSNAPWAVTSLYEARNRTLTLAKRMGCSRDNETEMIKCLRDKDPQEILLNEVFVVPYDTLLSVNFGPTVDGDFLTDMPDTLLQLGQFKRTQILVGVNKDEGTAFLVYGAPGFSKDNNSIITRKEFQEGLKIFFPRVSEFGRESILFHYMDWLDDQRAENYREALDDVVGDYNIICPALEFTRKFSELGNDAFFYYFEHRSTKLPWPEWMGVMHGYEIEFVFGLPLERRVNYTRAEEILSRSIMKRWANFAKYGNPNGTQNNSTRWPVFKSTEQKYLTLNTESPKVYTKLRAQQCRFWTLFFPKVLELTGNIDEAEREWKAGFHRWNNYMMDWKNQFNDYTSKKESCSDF
# TEST: biochemical
# Format: biochemical
# ASSAY_CONTEXT: sample concentration that led to 50% enzyme activity loss; mean ± SD; read-out: BChE IC50
pIC50: −log10 of the molar value.
This section presents compounds with their documented pIC50 values.
QUANTITY_MEASURED: pIC50

- COMPOUND: "COC(=O)[C@@]1(O)OC(=O)C(Cc2ccc3c(c2)CCC(C)(C)O3)=C1c1ccc(O)cc1 [Compound 3, flavipesolide B]"
  READOUT_QUALIFIER: "<"
  ENDPOINT_VALUE: 4.00
- COMPOUND: "COC(=O)[C@@]1(O)OC(=O)C(Cc2ccc(O)c(CC=C(C)C)c2)=C1c1ccc(O)cc1"
  READOUT_QUALIFIER: "="
  ENDPOINT_VALUE: 4.34
- COMPOUND: "CC(C)=CCc1cc(CC2OC(=O)C(O)=C2c2ccc(O)cc2)ccc1O (stereo not shown)"
  READOUT_QUALIFIER: "="
  ENDPOINT_VALUE: 4.35
- COMPOUND: "COC(=O)C1(O)OC(=O)C(Cc2ccc(O)c(CCC(C)(C)O)c2)=C1c1ccc(O)cc1 (stereo not shown)"
  READOUT_QUALIFIER: "<"
  ENDPOINT_VALUE: 4.00
